The values you see were collected from patent US9597407B2.

System: microorganisms
Experiment: Morphology, biofilm and growth disruption by peptides (Table 5)
Assay type: cell-based
Set-up: key: A: Peptide aggregates; B: Less hyphal formation; Clumps; Diffuse clumps and small polyps; F: Diffuse growth; H: Thin; I: Growth inhibition; Microcolony formation; Rippled; Small polyps; Thick; W: Halo formation on top, microlonies on bottom
Details: S. epidermidis
Measure name: Organism, effect (morphology, biofilm and growth disruption)

[[record]]
substance = "PF-558 (ADAPPPLIVRYS; Peptide with targeting and/or antimicrobial activity)"
result = "S. epidermidis (M)"

[[record]]
substance = "PF-681 (chain 1 TALTTVGVSGARLITYCVGVEDI; chain 2 TALTTVGVSGARLITYCVGVEDI; Peptide with targeting and/or antimicrobial activity)"
result = "S. epidermidis (M)"

